measuredTarget: T1, GIP Receptor (Homo sapiens, UniProt P48546)
T1 construct: host or cells: HEK293T
T1 sequence (P48546 22-466): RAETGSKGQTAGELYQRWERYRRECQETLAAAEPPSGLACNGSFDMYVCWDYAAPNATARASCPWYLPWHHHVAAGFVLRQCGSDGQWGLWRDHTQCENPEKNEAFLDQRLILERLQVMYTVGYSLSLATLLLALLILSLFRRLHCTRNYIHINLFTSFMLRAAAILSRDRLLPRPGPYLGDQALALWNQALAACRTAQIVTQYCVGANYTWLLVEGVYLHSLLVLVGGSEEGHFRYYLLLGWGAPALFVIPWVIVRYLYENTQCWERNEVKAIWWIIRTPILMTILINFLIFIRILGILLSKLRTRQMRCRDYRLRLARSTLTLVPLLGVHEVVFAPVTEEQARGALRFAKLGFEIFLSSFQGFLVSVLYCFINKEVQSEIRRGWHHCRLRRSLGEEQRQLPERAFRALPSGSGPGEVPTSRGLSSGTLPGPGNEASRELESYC
testName: GIP receptor-mediated bioluminescence in HEK293T cells with chimeric promiscuous G protein (FIG. 5, Table II)
Format: cell-based
runConditions: HEK293T cells, GIP Receptor + promiscuous G protein; luminescence vs GIP concentration
parameter: EC50 (nM)

>  <molecule>
Mt-clytin K168H: Mitochondrial K168H modified Clytin, SEQ ID NO:14 (protein) MSVLTPLLLRGLTGSARRLPVPRAKIHSLPPEGKLRPNFDNPKWVNRHKFMFNFLDINGDGKITLDEIVSKASDDICAKLGATPEQTKRHQDAVEAFFKKIGMDYGKEVEFPAFVDGWKELANYDLKLWSQNKKSLIRDWGEAVFDIFDKDGSGSISLDEWKAYGRISGICSSDEDAEKTFKHCDLDNSGHLDVDEMTRQHLGFWYTLDPNADGLYGNFVP

>  <recordedNumber>
19.2

$$$$
>  <molecule>
Mt-clytin K168N: Mitochondrial K168N modified Clytin, SEQ ID NO:18 (protein) MSVLTPLLLRGLTGSARRLPVPRAKIHSLPPEGKLRPNFDNPKWVNRHKFMFNFLDINGDGKITLDEIVSKASDDICAKLGATPEQTKRHQDAVEAFFKKIGMDYGKEVEFPAFVDGWKELANYDLKLWSQNKKSLIRDWGEAVFDIFDKDGSGSISLDEWKAYGRISGICSSDEDAEKTFKHCDLDNSGNLDVDEMTRQHLGFWYTLDPNADGLYGNFVP

>  <recordedNumber>
21

$$$$

This collection of values is drawn from patent US20110081661A1.
